B1: POU domain, class 2, transcription factor 3, residues 186 to 260; numbered along this chain, Q9UKI9 (parent)
chain: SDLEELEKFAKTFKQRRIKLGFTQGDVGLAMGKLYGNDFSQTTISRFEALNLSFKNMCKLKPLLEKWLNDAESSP

Variants of: B1
Test: abundance fitness (aPCA) (normalised: wild type 0, dead -1); higher = more abundant; growth selection in yeast, the domain comes from the species named
Details: Homo sapiens
Label scheme, based on abundance fitness: lo (below -0.2), med (-0.2 to below -0.002), hi (-0.002 or more)

Into which bin does this variant go? "R46Q"
hi

Same question for "K61Q" please.
med

Same question for "S73P" please.
med

Same question for "Y35S" please.
hi

Same question for "I44M" please.
lo

Same question for "N69Y" please.
med

Same question for "M57I" please.
lo

Same question for "K55V" please.
med

Same question for "L68N" please.
lo

Same question for "D70Q" please.
hi

Same question for "I44D" please.
lo

Same question for "Q41P" please.
med

Same question for "R46D" please.
hi

Same question for "F47G" please.
lo

Same question for "D2G" please.
med

Same question for "C58A" please.
hi
